- tested-system: NRAS Q61K (Homo sapiens, UniProt P01111+P62937, Q61K)
- Sequence (P01111 whole entry Q61K): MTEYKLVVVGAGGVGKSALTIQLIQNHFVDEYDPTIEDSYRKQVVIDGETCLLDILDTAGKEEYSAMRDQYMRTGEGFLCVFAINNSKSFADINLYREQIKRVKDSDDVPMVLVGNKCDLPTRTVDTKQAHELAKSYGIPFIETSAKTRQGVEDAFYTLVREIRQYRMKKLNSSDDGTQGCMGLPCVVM
- Sequence (P62937 whole entry): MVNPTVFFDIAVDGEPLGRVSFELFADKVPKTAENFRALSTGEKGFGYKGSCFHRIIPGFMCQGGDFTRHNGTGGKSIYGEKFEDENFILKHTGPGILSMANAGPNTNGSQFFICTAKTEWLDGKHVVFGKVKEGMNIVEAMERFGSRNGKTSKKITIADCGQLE
- protocol-notes: Ras-Raf disruption / FRET / MOA assay (BRAF RBD)
- Assay type: biochemical
- condition-description: NRAS Q61K; read-out: NRAS Q61K FRET data IC50
pIC50: −log10 of the molar value.
Form field: pIC50 (one value per entry).
property-name: pIC50

1. CCn1c(-c2cccnc2[C@H](C)OC)c2c3cc(ccc31)-c1cc(O)cc(c1)C[C@H](NC(=O)[C@H](C1CCCC1)N1CC[C@]3(CCN(C(=O)[C@@H]4N[C@@H]4C4CC4)C3)C1=O)C(=O)N1CCC[C@H](N1)C(=O)OCC(C)(C)C2 ... 6.00 to 7.00
2. CCn1c(-c2cccnc2[C@H](C)OC)c2c3cc(ccc31)-c1cc(O)cc(c1)C[C@H](NC(=O)[C@H](C(C)C)N(C)C(=O)N1C[C@@H]3[C@H]1CCN3C(=O)[C@@H]1CN1)C(=O)N1CCC[C@H](N1)C(=O)OCC(C)(C)C2 (atropisomer, axis not shown) ... 5.00 to 6.00
3. CCn1c(-c2cccnc2[C@H](C)OC)c2c3cc(ccc31)-c1csc(n1)C[C@H](NC(=O)[C@H](C(C)C)N(C)C(=O)N1CC(N(C)C(=O)[C@@H]3CN3)C1)C(=O)N1CCC[C@H](N1)C(=O)OCC(C)(C)C2 (atropisomer, axis not shown) ... 7.00 to 8.00
4. CCn1c(-c2cccnc2[C@H](C)OC)c2c3cc(ccc31)-c1csc(n1)C[C@H](NC(=O)[C@H](C(C)C)N(C)C(=O)N(C)[C@H]1CCN(C(=O)[C@H]3CN3)C1)C(=O)N1CCC[C@H](N1)C(=O)OCC(C)(C)C2 (atropisomer, axis not shown) ... 6.00 to 7.00
5. CCn1c(-c2cccnc2[C@H](C)OC)c2c3cc(ccc31)-c1csc(n1)C[C@H](NC(=O)[C@H](C(C)C)N(C)C(=O)N1CCN(C(=O)[C@@H]3CN3)C[C@H]1C)C(=O)N1CCC[C@H](N1)C(=O)OCC(C)(C)C2 ... 7.00 to 8.00
6. CCn1c(-c2cccnc2[C@H](C)OC)c2c3cc(ccc31)-c1cc(O)cc(c1)C[C@H](NC(=O)[C@@H](COC1CCN(C(=O)[C@H]3CN3)CC1)C(C)C)C(=O)N1CCC[C@H](N1)C(=O)OCC(C)(C)C2 (atropisomer, axis not shown) ... 5.00 to 6.00
7. CCn1c(-c2cccnc2[C@H](C)OC)c2c3cc(ccc31)-c1cc(O)cc(c1)C[C@H](NC(=O)[C@H](C(C)C)N(C)C(=O)CN(C)C(=O)[C@H]1C[C@@H]3N[C@@H]3C1)C(=O)N1CCC[C@H](N1)C(=O)OCC(C)(C)C2 (atropisomer, axis not shown) ... 6.00 to 7.00

====

- tested-system: KRAS G12C (Homo sapiens, UniProt P01116+P62937, G12C)
- Sequence (P01116 1-169 isoform P01116-2 G12C, one chain of several): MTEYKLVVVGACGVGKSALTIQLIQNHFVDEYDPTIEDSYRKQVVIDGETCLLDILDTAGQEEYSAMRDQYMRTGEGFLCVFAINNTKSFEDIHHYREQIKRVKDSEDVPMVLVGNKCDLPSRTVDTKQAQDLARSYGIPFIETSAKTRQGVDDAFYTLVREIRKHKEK
- protocol-notes: Disruption of BRAF RBD interaction with Ras (FRET / MOA assay, with Cyclophilin A)
- Format: biochemical
- condition-description: KRAS G12C; read-out: KRAS G12C FRET data IC50
Form field: IC50 (one value per entry).
property-name: IC50

1. C=CC(=O)N1CC[C@H](C(=O)N(C)[C@H](C(=O)N[C@H]2Cc3cc(OC(=O)CN)cc(c3)-c3ccc4c(c3)c(c(-c3ccccc3CCOC)n4CC)CC(C)(C)COC(=O)[C@@H]3CCCN(N3)C2=O)C(C)C)C1 ... 0.1 to 1 µM
2. C=CC(=O)N1CCOC2(CCN(C(=O)N(C)[C@H](C(=O)N[C@H]3CN4CCC=C(C4)c4ccc5c(c4)c(c(-c4cccnc4[C@H](C)OC)n5CC)CC(C)(C)COC(=O)[C@@H]4CCCN(N4)C3=O)C(C)C)CC2)C1 ... 0.1 to 1 µM
3. CCn1c(-c2cnccc2COC)c2c3cc(ccc31)-c1cc(O)cc(c1)C[C@H](NC(=O)[C@H](C(C)C)N(C)C(=O)[C@H]1CCN(C(=O)/C=C/CN(C)C)C1)C(=O)N1CCC[C@H](N1)C(=O)OCC(C)(C)C2 ... 0.01 to 0.1 µM
